Tested on: KHOS-NP
Test: relative viability vs DMSO control (72 h) (fraction); higher = more viable cells
Conditions: 0.04115 µM
READOUT_LABEL: relative viability

Look up relative viability for the entries below, preserving their order.
1. Cc1[nH]c(/C=C2\C(=O)Nc3ccccc32)c(C)c1CCC(=O)O [Orantinib]
2. O=C(/C=C\n1cnc(-c2cc(C(F)(F)F)cc(C(F)(F)F)c2)n1)NNc1cnccn1 [Selinexor]
3. CCOc1cc2ncc(C#N)c(Nc3ccc(OCc4ccccn4)c(Cl)c3)c2cc1NC(=O)/C=C/CN(C)C [Neratinib]
4. C=CC(=O)N1CCC(CNc2ncnc(N)c2-c2ccc(Oc3ccccc3)cc2)CC1 [Evobrutinib]
5. CN(C)CCCOc1ccc(-c2ccc3ncc4c(c3c2)n(C2CCOCC2)c(=O)n4C)cn1 [AZD-0156]
6. Cc1cc2c(F)c(Oc3ncnn4cc(OC[C@@H](C)OC(=O)[C@H](C)N)c(C)c34)ccc2[nH]1 [Brivanib_alaninate]
7. CS(=O)(=O)CCNCc1ccc(-c2ccc3ncnc(Nc4ccc(OCc5cccc(F)c5)c(Cl)c4)c3c2)o1 [Lapatinib]
8. CN(C)C/C=C/C(=O)Nc1cc2c(Nc3ccc(F)c(Cl)c3)ncnc2cc1O[C@H]1CCOC1 [Afatinib]

RESULT:
1.11
1.05
1.01
1.13
1.09
1.07
1.05
1.07

====

Please provide measured relative viability for the entries that follow.
System: HS729
Test: relative viability vs DMSO control (72 h) (fraction); higher = more viable cells
Conditions: 0.00017 µM
Numbers only.

{"SMILES_RECORD": "C=CC(=O)N1CCC(CNc2ncnc(N)c2-c2ccc(Oc3ccccc3)cc2)CC1", "relative viability": 1.08}
{"SMILES_RECORD": "CO[C@H]1C[C@@H]2CC[C@@H](C)[C@@](O)(O2)C(=O)C(=O)N2CCCC[C@H]2C(=O)O[C@H]([C@H](C)C[C@@H]2CC[C@@H](OC(=O)C(C)(CO)CO)[C@H](OC)C2)CC(=O)[C@H](C)/C=C(\\C)[C@@H](O)[C@@H](OC)C(=O)[C@H](C)C[C@H](C)/C=C/C=C/C=C/1C", "relative viability": 0.909}
{"SMILES_RECORD": "CCOc1cc2ncc(C#N)c(Nc3ccc(OCc4ccccn4)c(Cl)c3)c2cc1NC(=O)/C=C/CN(C)C", "relative viability": 0.944}
{"SMILES_RECORD": "COC(=O)c1ccc2c(c1)NC(=O)/C2=C(\\Nc1ccc(N(C)C(=O)CN2CCN(C)CC2)cc1)c1ccccc1", "relative viability": 0.981}
{"SMILES_RECORD": "COc1cc(N2CCC(N3CCN(C)CC3)CC2)ccc1Nc1ncc(Cl)c(Nc2ccccc2P(C)(C)=O)n1", "relative viability": 0.91}

Please find the next molecule below.
QUERY: Checklist item: relative viability tested on HS729, entry `O=C1CCc2c(Oc3ccc4c(c3)[C@@H]3[C@H](O4)[C@H]3c3nc4cc(C(F)(F)F)ccc4[nH]3)ccnc2N1` , value?
RESULT: 0.947

====

Please provide measured relative viability for the entries that follow.
System: SW982
Test: relative viability vs DMSO control (72 h) (fraction); higher = more viable cells
Conditions: 0.00051 µM
Give bare numbers.

# example entries with known answers
{"MOLECULE": "O=C(/C=C\\n1cnc(-c2cc(C(F)(F)F)cc(C(F)(F)F)c2)n1)NNc1cnccn1 [Selinexor]", "relative viability": 1.07}
{"MOLECULE": "Cc1cc2c(F)c(Oc3ncnn4cc(OC[C@@H](C)OC(=O)[C@H](C)N)c(C)c34)ccc2[nH]1 [Brivanib_alaninate]", "relative viability": 1.03}
{"MOLECULE": "Cc1[nH]c(/C=C2\\C(=O)Nc3ccccc32)c(C)c1CCC(=O)O [Orantinib]", "relative viability": 1.11}

Please find the next molecule below.
QUERY: Reported relative viability for O=S(=O)(c1cccc2c(O)nccc12)N1CCCNCC1 [Hydroxyfasudil] : what is it?
RESULT: 1.05

====

Please provide measured relative viability for the entries that follow.
System: RD
Test: relative viability vs DMSO control (72 h) (fraction); higher = more viable cells
Settings: 0.00152 µM
Give bare numbers.

{"SMILES_RECORD": "CN(C)C(=O)c1cc2cnc(Nc3ccc(N4CCNCC4)cn3)nc2n1C1CCCC1", "relative viability": 1.08}

Look up relative viability for the entries below, preserving their order.
1. COc1cc(Nc2ncc3c(n2)-c2ccc(Cl)cc2C(c2c(F)cccc2OC)=NC3)ccc1C(=O)O
2. O=C(c1ccc(F)c(F)c1Nc1ccc(I)cc1F)N1CC(O)([C@@H]2CCCCN2)C1

RESULT:
1: 1.09; 2: 1.07

Look up relative viability for the entries below, preserving their order.
1. CN(C)CCCOc1ccc(-c2ccc3ncc4c(c3c2)n(C2CCOCC2)c(=O)n4C)cn1
2. C[C@@H]1CN(C(=O)c2ccc(NC(=O)c3cc(O[C@H](C)c4c(Cl)ccc(F)c4Cl)c(N)nn3)cc2)C[C@H](C)N1
3. CCS(=O)(=O)N1CC(CC#N)(n2cc(-c3ncnc4[nH]ccc34)cn2)C1

RESULT:
1.07
1.06
1.03

Look up relative viability for the entries below, preserving their order.
1. Cc1c2oc3c(C)ccc(C(=O)N[C@@H]4C(=O)N[C@H](C(C)C)C(=O)N5CCC[C@H]5C(=O)N(C)CC(=O)N(C)[C@@H](C(C)C)C(=O)O[C@@H]4C)c3nc-2c(C(=O)N[C@@H]2C(=O)N[C@H](C(C)C)C(=O)N3CCC[C@H]3C(=O)N(C)CC(=O)N(C)[C@@H](C(C)C)C(=O)O[C@@H]2C)c(N)c1=O
2. CNC(=O)c1cccc2cc(Oc3ccnc4cc(OCC5(N)CC5)c(OC)cc34)ccc12
3. C=CC(=O)N1CCC(CNc2ncnc(N)c2-c2ccc(Oc3ccccc3)cc2)CC1

RESULT:
1. 1.07
2. 1.1
3. 1.09

====

Please provide measured relative viability for the entries that follow.
Test system: SYO-1
Experiment: relative viability vs DMSO control (72 h) (fraction); higher = more viable cells
Settings: 0.00457 µM
Numbers only.

# example entries with known answers
{"COMPOUND": "CC(=O)c1c(C)c2cnc(Nc3ccc(N4CCNCC4)cn3)nc2n(C2CCCC2)c1=O [Palbociclib]", "relative viability": 0.955}
{"COMPOUND": "Cc1cc(F)c(C(=O)Nc2cccc(-c3nncn3C(C)C)n2)cc1-n1cnc(C2CC2)c1 [Selonsertib]", "relative viability": 0.94}
{"COMPOUND": "COc1cc(N2CCC(N3CCN(C)CC3)CC2)ccc1Nc1ncc(Cl)c(Nc2ccccc2P(C)(C)=O)n1 [Brigatinib]", "relative viability": 0.889}
{"COMPOUND": "COc1cc2ncnc(Nc3ccc(F)c(Cl)c3)c2cc1OCCCN1CCOCC1 [Gefitinib]", "relative viability": 0.998}

Look up relative viability for the entries below, preserving their order.
1. CN(C)C/C=C/C(=O)Nc1cc2c(Nc3ccc(F)c(Cl)c3)ncnc2cc1O[C@H]1CCOC1 [Afatinib]
2. Cc1[nH]c(/C=C2\C(=O)Nc3ccccc32)c(C)c1CCC(=O)O [Orantinib]
3. CN(C)C(=O)c1cc2cnc(Nc3ccc(N4CCNCC4)cn3)nc2n1C1CCCC1 [Ribociclib]

RESULT:
1: 0.949; 2: 1.02; 3: 0.937

====

Please provide measured relative viability for the entries that follow.
Test system: A204
Test: relative viability vs DMSO control (72 h) (fraction); higher = more viable cells
Conditions: 1.111 µM
One number for each entry.

# example entries with known answers
{"COMPOUND": "CN(C)C/C=C/C(=O)Nc1cc2c(Nc3ccc(F)c(Cl)c3)ncnc2cc1O[C@H]1CCOC1 [Afatinib]", "relative viability": 0.34}
{"COMPOUND": "CO[C@H]1C[C@@H]2CC[C@@H](C)[C@@](O)(O2)C(=O)C(=O)N2CCCC[C@H]2C(=O)O[C@H]([C@H](C)C[C@@H]2CC[C@@H](OC(=O)C(C)(CO)CO)[C@H](OC)C2)CC(=O)[C@H](C)/C=C(\\C)[C@@H](O)[C@@H](OC)C(=O)[C@H](C)C[C@H](C)/C=C/C=C/C=C/1C [Temsirolimus]", "relative viability": 0.431}
{"COMPOUND": "CN(C)C(=O)c1cc2cnc(Nc3ccc(N4CCNCC4)cn3)nc2n1C1CCCC1 [Ribociclib]", "relative viability": 0.921}
{"COMPOUND": "Cc1cc2c(F)c(Oc3ncnn4cc(OC[C@@H](C)OC(=O)[C@H](C)N)c(C)c34)ccc2[nH]1 [Brivanib_alaninate]", "relative viability": 0.999}
{"COMPOUND": "C#Cc1cccc(Nc2ncnc3cc4c(cc23)OCCOCCOCCO4)c1 [Icotinib]", "relative viability": 0.967}

Look up relative viability for the entries below, preserving their order.
1. COc1cc2ncnc(Nc3ccc(F)c(Cl)c3)c2cc1OCCCN1CCOCC1 [Gefitinib]
2. O=S(=O)(c1cccc2c(O)nccc12)N1CCCNCC1 [Hydroxyfasudil]

RESULT:
1: 1.04; 2: 1.04
